Tested On: T1, Recombinant Human DLL4 (R&D Systems Cat#1506-D4/CF) (human, UniProt Q9NR61 27-524)
T1 construct: Bought recombinant protein; also called delta-like protein 4; rHuman DLL4
Assay Remarks: ECL multispot (MSD) binding assay, DLL4 spotted on plate, purified Fab in solution; Fab concentration not given
Catalogue of ECL signal readings, one per entry.

{"columns": ["Binder", "ECL signal"],
 "data": [
  ["Fab VH1-46_IGHD6-6*01_IGHJ1*01 S102A/S103P/S104F/H111F (APFF) & L6_IGKJ1*01 S28N (Fab, V domains shown, Fab expressed in E. coli: VH joined to CH1 (Plasmid A, His6 and Flag tags), VL joined to kappa CL (Plasmid C); also called APFF S28N) VH: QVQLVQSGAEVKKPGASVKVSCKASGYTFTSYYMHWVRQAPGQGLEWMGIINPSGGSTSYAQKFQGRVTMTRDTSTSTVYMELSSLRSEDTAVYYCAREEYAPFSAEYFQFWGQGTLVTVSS VL: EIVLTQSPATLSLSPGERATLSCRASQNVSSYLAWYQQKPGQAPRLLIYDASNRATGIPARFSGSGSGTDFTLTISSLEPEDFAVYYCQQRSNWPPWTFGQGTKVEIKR", 204000],
  ["Fab VH1-46_IGHD6-6*01_IGHJ1*01 S102A/S103P/S104F/H111F (APFF) & L6_IGKJ1*01 S28Q (Fab, V domains shown, Fab expressed in E. coli: VH joined to CH1 (Plasmid A, His6 and Flag tags), VL joined to kappa CL (Plasmid C); also called APFF S28Q) VH: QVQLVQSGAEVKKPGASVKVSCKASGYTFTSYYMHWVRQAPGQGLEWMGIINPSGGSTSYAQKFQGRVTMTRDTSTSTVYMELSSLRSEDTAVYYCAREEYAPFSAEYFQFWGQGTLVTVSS VL: EIVLTQSPATLSLSPGERATLSCRASQQVSSYLAWYQQKPGQAPRLLIYDASNRATGIPARFSGSGSGTDFTLTISSLEPEDFAVYYCQQRSNWPPWTFGQGTKVEIKR", 133000]
]}

Next:
Lab note: measured ECL signal of Fab VH1-46_IGHD6-6*01_IGHJ1*01 S102A/S103P/S104F/H111F (APFF) & L6_IGKJ1*01 S28P (Fab, V domains shown, Fab expressed in E. coli: VH joined to CH1 (Plasmid A, His6 and Flag tags), VL joined to kappa CL (Plasmid C); also called APFF S28P) VH: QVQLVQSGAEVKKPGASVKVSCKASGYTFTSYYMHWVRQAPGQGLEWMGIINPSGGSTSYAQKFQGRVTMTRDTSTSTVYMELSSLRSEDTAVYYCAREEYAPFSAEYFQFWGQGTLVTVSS VL: EIVLTQSPATLSLSPGERATLSCRASQPVSSYLAWYQQKPGQAPRLLIYDASNRATGIPARFSGSGSGTDFTLTISSLEPEDFAVYYCQQRSNWPPWTFGQGTKVEIKR was 178000
